This collection of values is drawn from paper PMC6207715.

// Km lookup, one value per entry
molecular target: MALT1 (Homo sapiens, UniProt Q9UDY8); experiment: Kinetic assay of ACC fluorogenic substrates (kcat, Km, kcat/Km); assay type: biochemical; details: 37 °C; 50 mM HEPES, 100 mM NaCl, 0.9 M sodium citrate, 10 mM DTT, pH 7.5; substrate 3.90-150 μM; ACC fluorescence 355/460 nm; average of three measurements
Sequence (Q9UDY8 whole entry): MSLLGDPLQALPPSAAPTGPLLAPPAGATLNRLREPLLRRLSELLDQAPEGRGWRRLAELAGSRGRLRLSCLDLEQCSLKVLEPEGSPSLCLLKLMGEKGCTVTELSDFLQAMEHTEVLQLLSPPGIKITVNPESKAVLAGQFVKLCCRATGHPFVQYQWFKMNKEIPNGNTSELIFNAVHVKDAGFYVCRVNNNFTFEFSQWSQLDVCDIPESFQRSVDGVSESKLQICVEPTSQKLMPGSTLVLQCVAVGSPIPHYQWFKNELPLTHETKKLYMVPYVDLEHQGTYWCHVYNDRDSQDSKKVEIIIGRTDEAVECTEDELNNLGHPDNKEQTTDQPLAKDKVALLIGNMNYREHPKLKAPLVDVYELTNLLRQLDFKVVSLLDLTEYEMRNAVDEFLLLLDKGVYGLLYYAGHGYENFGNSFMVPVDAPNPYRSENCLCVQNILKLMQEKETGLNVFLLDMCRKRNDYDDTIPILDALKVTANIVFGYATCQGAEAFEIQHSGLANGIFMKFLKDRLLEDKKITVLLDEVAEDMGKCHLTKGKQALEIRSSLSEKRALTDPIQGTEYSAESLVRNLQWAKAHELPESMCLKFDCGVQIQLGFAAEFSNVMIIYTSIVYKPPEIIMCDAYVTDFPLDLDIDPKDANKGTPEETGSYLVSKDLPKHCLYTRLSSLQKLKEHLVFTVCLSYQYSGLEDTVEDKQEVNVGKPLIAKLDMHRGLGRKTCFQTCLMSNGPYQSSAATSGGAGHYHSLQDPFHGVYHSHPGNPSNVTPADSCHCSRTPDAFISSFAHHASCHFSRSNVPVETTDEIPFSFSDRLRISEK
Non-standard residues stand in square brackets, D forms with d. *: point of attachment. ACC = NC(=O)Cc1cc(=O)oc2cc(N*)ccc12; Abu = CC[C@H](N)C(=O)O

# Substance, Unit Text, Km
measured = [
    ("Ac-[dV]LVSR-{ACC} (SMILES CC(=O)N[C@@H](C(=O)N[C@@H](CC(C)C)C(=O)N[C@H](C(=O)N[C@@H](CO)C(=O)N[C@@H](CCCNC(=N)N)C(=O)Nc1ccc2c(CC(N)=O)cc(=O)oc2c1)C(C)C)C(C)C) [Ac-D-Val-LVSR-ACC]", "µM", 19.2),
    ("Ac-[dA]LVSR-{ACC} (SMILES CC(=O)N[C@H](C)C(=O)N[C@@H](CC(C)C)C(=O)N[C@H](C(=O)N[C@@H](CO)C(=O)N[C@@H](CCCNC(=N)N)C(=O)Nc1ccc2c(CC(N)=O)cc(=O)oc2c1)C(C)C) [Ac-D-Ala-LVSR-ACC]", "µM", 24.4),
    ("Ac-KLVSR-{ACC} (SMILES CC(=O)N[C@@H](CCCCN)C(=O)N[C@@H](CC(C)C)C(=O)N[C@H](C(=O)N[C@@H](CO)C(=O)N[C@@H](CCCNC(=N)N)C(=O)Nc1ccc2c(CC(N)=O)cc(=O)oc2c1)C(C)C) [Ac-Lys-LVSR-ACC]", "µM", 25.5),
    ("Ac-RLVSR-{ACC} (SMILES CC(=O)N[C@@H](CCCNC(=N)N)C(=O)N[C@@H](CC(C)C)C(=O)N[C@H](C(=O)N[C@@H](CO)C(=O)N[C@@H](CCCNC(=N)N)C(=O)Nc1ccc2c(CC(N)=O)cc(=O)oc2c1)C(C)C) [Ac-Arg-LVSR-ACC]", "µM", 19.1),
    ("Ac-TLVSR-{ACC} (SMILES CC(=O)N[C@H](C(=O)N[C@@H](CC(C)C)C(=O)N[C@H](C(=O)N[C@@H](CO)C(=O)N[C@@H](CCCNC(=N)N)C(=O)Nc1ccc2c(CC(N)=O)cc(=O)oc2c1)C(C)C)[C@@H](C)O) [Ac-Thr-LVSR-ACC]", "µM", 22.4),
    ("Ac-[Abu]LVSR-{ACC} (SMILES CC[C@H](NC(C)=O)C(=O)N[C@@H](CC(C)C)C(=O)N[C@H](C(=O)N[C@@H](CO)C(=O)N[C@@H](CCCNC(=N)N)C(=O)Nc1ccc2c(CC(N)=O)cc(=O)oc2c1)C(C)C) [Ac-Abu-LVSR-ACC]", "µM", 22.2),
    ("Ac-ALVSR-{ACC} (SMILES CC(=O)N[C@@H](C)C(=O)N[C@@H](CC(C)C)C(=O)N[C@H](C(=O)N[C@@H](CO)C(=O)N[C@@H](CCCNC(=N)N)C(=O)Nc1ccc2c(CC(N)=O)cc(=O)oc2c1)C(C)C) [Ac-Ala-LVSR-ACC, reference compound]", "µM", 9.45),
]
